Tested on: clot lysis (fibrinolysis) in human citrated plasma, tPA-induced
assayMethodText: Plasma-based clot lysis assay (5%)
Format: biochemical
testParameters: diluted human citrated plasma (platelet-poor, 5%), fibrinogen 3 μM, CaCl2 10 mM, tPA 0.2 nM, 37° C., OD 405 nm
pIC50: −log10 of the molar value. Counter-ions that a name gives are not always drawn.
readout: pIC50

a. Cc1ccccc1-c1cccc2nn3c(C4CCNCC4)cc(=O)[nH]c3c12 [Example 85, hydrochloride]
b. Cc1ccc2nn3c(C4CCNCC4)cc(=O)[nH]c3c2c1 [Example 15, hydrochloride]
c. O=c1cc(C2CCNCC2)n2nc3nc(-c4ccc(F)cc4)cc(C(F)(F)F)c3c2[nH]1 [Example 42, hydrochloride]
d. O=C(O)c1cccc2nn3c(C4CCNCC4)cc(=O)[nH]c3c12 [Example 106, hydrochloride]
*Q* Consider the compounds listed above. Rank them by pIC50 in ascending numerical order. Answer format: list of labels, ordered as asked.
*A* d, c, b, a

I. O=c1cc(C2CCNCC2)n2nc3ccc(C(F)(F)F)cc3c2[nH]1 [Example 2, hydrochloride]
II. CC(C)c1cccc2nn3c(C4CCNCC4)cc(=O)[nH]c3c12 [Example 62, hydrochloride]
III. O=c1cc(C2CCNCC2)n2nc3ccccc3c2[nH]1 [Example 1, hydrochloride]
*Q* Thanks in advance: please rank these 3 entries by pIC50, highest to lowest. Answer format: list of labels, ordered as asked.
*A* II, I, III

A. CN(C)c1ccnc2nn3c(C4CCNCC4)cc(=O)[nH]c3c12 [Example 40, hydrochloride]
B. Cc1ccc(Br)c2c1nn1c(C3CCNCC3)cc(=O)[nH]c21 [Example 75, hydrochloride]
*Q* Parameter metric = pIC50. Return the lower-valued option from A and B . Label of pick, please.
*A* A
(A: 7.42, B: 7.80)

====

Tested on: clot lysis (fibrinolysis) in human citrated plasma, tPA-induced
assayMethodText: Plasma-based clot lysis assay (5%)
Format: biochemical
testParameters: diluted human citrated plasma (platelet-poor, 5%), fibrinogen 3 μM, CaCl2 10 mM, tPA 0.2 nM, 37° C., OD 405 nm
pIC50: −log10 of the molar value. Where a name gives a salt, the structure may show the parent alone.
readout: pIC50

# count of solved cases: 5
>  <molecule>
O=c1cc(C2CCNCC2)n2nc3cc(Cl)ccc3c2[nH]1 [Example 39, hydrochloride]

>  <readout>
pIC50

>  <testValue>
7.62

$$$$
>  <molecule>
O=c1cc(C2CCNCC2)n2nc3c(Cl)cccc3c2[nH]1 [Example 22, hydrochloride]

>  <readout>
pIC50

>  <testValue>
7.59

$$$$
>  <molecule>
C[C@H]1C[C@H](c2cc(=O)[nH]c3c4c(Br)cccc4nn23)CCN1 [Example 50, hydrochloride]

>  <readout>
pIC50

>  <testValue>
7.85

$$$$
>  <molecule>
CC(C)Oc1ccccc1-c1cccc2nn3c(C4CCNCC4)cc(=O)[nH]c3c12 [Example 94, hydrochloride]

>  <readout>
pIC50

>  <testValue>
7.46

$$$$
>  <molecule>
O=c1cc(C2CCNCC2)n2nc3cc(C(F)(F)F)cc(Cl)c3c2[nH]1 [Example 41, hydrochloride]

>  <readout>
pIC50

>  <testValue>
7.64

$$$$

1. Cc1ccnc2nn3c(C4CCNCC4)cc(=O)[nH]c3c12 [Example 47, hydrochloride]
2. O=c1cc(C2CCNCC2)n2nc3cccc(-c4ccccc4C(F)(F)F)c3c2[nH]1 [Example 67, hydrochloride]
3. O=c1cc(C2CCNCC2)n2nc3cccc(OC(F)(F)F)c3c2[nH]1 [Example 37, hydrochloride]
*Q* Order by pIC50, ascending. Answer format: list of labels, ordered as asked.
*A* 3, 1, 2

A. O=c1cc(C2CCNCC2)n2nc3ccc(F)c(Br)c3c2[nH]1 [Example 70, hydrochloride]
B. O=c1cc(C2CCNCC2)n2nc3cccc(-c4ccc(C(F)(F)F)cc4)c3c2[nH]1 [Example 55, hydrochloride]
*Q* Parameter metric = pIC50. Return the lower-valued option from A and B . Label of pick, please.
*A* A
(A: 7.46, B: 7.85)

a. O=c1cc(C2CCNCC2)n2nc3ccc(Cl)cc3c2[nH]1 [Example 5, hydrochloride]
b. Cc1ccc2nn3c(C4CCNCC4)cc(=O)[nH]c3c2c1Cl [Example 69, hydrochloride]
*Q* Select one: a or b . Criterion: greater recorded pIC50. Label of pick, please.
*A* b
(b: 7.70, a: 7.43)

====

Tested on: clot lysis (fibrinolysis) in human citrated plasma, tPA-induced
assayMethodText: Plasma-based clot lysis assay (5%)
Type: biochemical
testParameters: diluted human citrated plasma (platelet-poor, 5%), fibrinogen 3 μM, CaCl2 10 mM, tPA 0.2 nM, 37° C., OD 405 nm
Structures can show the parent of a compound that is named as a salt.
readout: IC50 (nM)

>  <molecule>
O=c1cc(C2CCNCC2)n2nc3ccc(F)cc3c2[nH]1 [Example 7, hydrochloride]

>  <endpointUnit>
nM

>  <testValue>
95

$$$$
>  <molecule>
O=c1cc(C2CCNCC2)n2nc3cncc(Br)c3c2[nH]1 [Example 43, hydrochloride]

>  <endpointUnit>
nM

>  <testValue>
100

$$$$
>  <molecule>
O=c1cc(C2CCNCC2)n2nc3cccc(-c4ccc[nH]4)c3c2[nH]1 [Example 104, hydrochloride]

>  <endpointUnit>
nM

>  <testValue>
35

$$$$
>  <molecule>
O=c1cc(C2CCNCC2)n2nc3cccc(-c4ccccc4)c3c2[nH]1 [Example 56, hydrochloride]

>  <endpointUnit>
nM

>  <testValue>
14

$$$$
>  <molecule>
O=c1cc(C2CCNCC2)n2nc3c(C(F)(F)F)cccc3c2[nH]1 [Example 30, hydrochloride]

>  <endpointUnit>
nM

>  <testValue>
46

$$$$

P. O=c1cc(C2CCNCC2)n2nc3cccc(-c4cnc[nH]4)c3c2[nH]1 [Example 103, hydrochloride]
Q. O=c1cc(C2CCNCC2)n2nc3cccc(-c4nccs4)c3c2[nH]1 [Example 83, hydrochloride]
R. Cc1ccc2nn3c(C4CCNCC4)cc(=O)[nH]c3c2c1Br [Example 74, hydrochloride]
*Q* Order by IC50, ascending. Answer format: list of labels, ordered as asked.
*A* R, Q, P
(R: 15 nM, Q: 41 nM, P: 110 nM)

====

Test system: clot lysis (fibrinolysis) in human citrated plasma, tPA-induced
assayMethodText: Plasma-based clot lysis assay (5%)
Format: biochemical
testParameters: diluted human citrated plasma (platelet-poor, 5%), fibrinogen 3 μM, CaCl2 10 mM, tPA 0.2 nM, 37° C., OD 405 nm
Where a name gives a salt, the structure may show the parent alone.
readout: IC50 (µM)

>  <molecule>
Cc1cc(Cl)c2c(c1)nn1c(C3CCNCC3)cc(=O)[nH]c21 [Example 79, hydrochloride]

>  <assayTarget>
clot lysis (fibrinolysis) in human citrated plasma, tPA-induced

>  <endpointUnit>
µM

>  <IC50>
0.011

$$$$
>  <molecule>
COc1ccccc1-c1cccc2nn3c(C4CCNCC4)cc(=O)[nH]c3c12 [Example 65, hydrochloride]

>  <assayTarget>
clot lysis (fibrinolysis) in human citrated plasma, tPA-induced

>  <endpointUnit>
µM

>  <IC50>
0.025

$$$$
>  <molecule>
O=c1cc(C2CCNCC2)n2nc3c(F)ccc(Br)c3c2[nH]1 [Example 71, hydrochloride]

>  <assayTarget>
clot lysis (fibrinolysis) in human citrated plasma, tPA-induced

>  <endpointUnit>
µM

>  <IC50>
0.015

$$$$
>  <molecule>
O=c1cc(C2CCNCC2)n2nc3cccc(C4CCCC4)c3c2[nH]1 [Example 63, hydrochloride]

>  <assayTarget>
clot lysis (fibrinolysis) in human citrated plasma, tPA-induced

>  <endpointUnit>
µM

>  <IC50>
0.013

$$$$
>  <molecule>
CC(C)(C)c1ccc2c(n1)nn1c(C3CCNCC3)cc(=O)[nH]c21 [Example 13, hydrochloride]

>  <assayTarget>
clot lysis (fibrinolysis) in human citrated plasma, tPA-induced

>  <endpointUnit>
µM

>  <IC50>
0.031

$$$$

1. Cn1nccc1-c1cccc2nn3c(C4CCNCC4)cc(=O)[nH]c3c12 [Example 86, hydrochloride]
2. O=c1cc(C2CCNCC2)n2nc3cccnc3c2[nH]1 [Example 9, hydrochloride]
3. Cn1cc(-c2cccc3nn4c(C5CCNCC5)cc(=O)[nH]c4c23)cn1 [Example 87, hydrochloride]
*Q* Order by IC50, ascending. Answer format: list of labels, ordered as asked.
*A* 1, 3, 2
(1: 0.015 µM, 3: 0.025 µM, 2: 0.036 µM)

====

Tested on: clot lysis (fibrinolysis) in human citrated plasma, tPA-induced
assayMethodText: Plasma-based clot lysis assay (5%)
Assay type: biochemical
testParameters: diluted human citrated plasma (platelet-poor, 5%), fibrinogen 3 μM, CaCl2 10 mM, tPA 0.2 nM, 37° C., OD 405 nm
pIC50: −log10 of the molar value. Where a name gives a salt, the structure may show the parent alone.
readout: pIC50

# count of solved cases: 8
>  <compound>
O=c1cc(C2CCNCC2)n2nc3cccc(Cl)c3c2[nH]1

>  <testValue>
7.82

$$$$
>  <compound>
Cc1ccc2c(n1)nn1c(C3CCNCC3)cc(=O)[nH]c21 [Example 24, hydrochloride]

>  <testValue>
7.47

$$$$
>  <compound>
O=c1cc(C2CCNCC2)n2nc3cc(C(F)(F)F)ccc3c2[nH]1 [Example 11, hydrochloride]

>  <testValue>
7.59

$$$$
>  <compound>
O=c1cc(C2CCNCC2)n2nc3cccc(-c4ccccc4F)c3c2[nH]1

>  <testValue>
7.74

$$$$
>  <compound>
O=c1cc(C2CCNCC2)n2nc3cccc(C(F)(F)F)c3c2[nH]1 [Example 12, hydrochloride]

>  <testValue>
7.49

$$$$
>  <compound>
COc1cccc(F)c1-c1cccc2nn3c(C4CCNCC4)cc(=O)[nH]c3c12 [Example 97, hydrochloride]

>  <testValue>
7.52

$$$$
>  <compound>
O=c1cc(C2CCNCC2)n2nc3cccc(-c4ccccn4)c3c2[nH]1 [Example 82, hydrochloride]

>  <testValue>
7.70

$$$$
>  <compound>
COc1cccc2nn3c(C4CCNCC4)cc(=O)[nH]c3c12 [Example 8, hydrochloride]

>  <testValue>
7.34

$$$$

P. O=c1cc(C2CCNCC2)n2nc3cccc(I)c3c2[nH]1 [Example 20, hydrochloride]
Q. O=c1cc(C2CCNCC2)n2nc3c(Cl)cc(Cl)cc3c2[nH]1 [Example 6, hydrochloride]
*Q* Parameter metric = pIC50. Return the lower-valued option from P and Q . Label of pick, please.
*A* Q
(Q: 7.03, P: 7.66)

I. CCOc1cccc2nn3c([C@@H]4CCN[C@@H](C)C4)cc(=O)[nH]c3c12 [Example 52, hydrochloride]
II. CCOc1ccccc1-c1cccc2nn3c(C4CCNCC4)cc(=O)[nH]c3c12 [Example 93, hydrochloride]
III. O=c1cc(C2CCNCC2)n2nc3cccc(O)c3c2[nH]1 [Example 105, hydrobromide]
*Q* Thanks in advance: please rank these 3 entries by pIC50, highest to lowest. Answer format: list of labels, ordered as asked.
*A* I, II, III
(I: 7.89, II: 7.55, III: 7.13)
